# TARGET ENTITY: T1, human α-CGRP (Homo sapiens, UniProt P06881)
# T1 construct: 1-37 (WT); purchased GenScript Corporation or Global Peptide Services
# T1 sequence (P06881 83-119 limits assumed): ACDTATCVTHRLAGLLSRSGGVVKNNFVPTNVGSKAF
# ASSAY NAME: Biacore SPR affinity of Fab fragments to N-biotinylated human α-CGRP on SA chip
# Type: binding
# PROTOCOL CONDITIONS: 37° C., screening mode except underlined values
READOUT LABEL: α-human koff (s⁻¹)
Note: unit s⁻¹ is implicit; provide only the numeric part.

## Input Please list α-human koff recorded for the molecule M62: G1 variant; L1 R28N T30G; L2 A51H L56T; H2 E54K A57N S58E; HC-FW3 L99T A100V (antibody, V domains shown) VH: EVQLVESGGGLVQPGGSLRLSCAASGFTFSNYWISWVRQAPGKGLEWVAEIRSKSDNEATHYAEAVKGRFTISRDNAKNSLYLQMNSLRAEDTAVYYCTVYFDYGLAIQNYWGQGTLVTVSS VL: EIVLTQSPATLSLSPGERATLSCKASKNVGTYVSWYQQKPGQAPRLLIYGHSNRYTGIPARFSGSGSGTDFTLTISSLEPEDFAVYYCSQSYNYPYTFGQGTKLEIK
## Output 0.000557

## Input Please list α-human koff recorded for the molecule M77: G1 variant; L1 R28N T30S; L2 G50A L56T; H2 E54K A57D; HC-FW3 L99T A100V (antibody, V domains shown) VH: EVQLVESGGGLVQPGGSLRLSCAASGFTFSNYWISWVRQAPGKGLEWVAEIRSKSDDSATHYAEAVKGRFTISRDNAKNSLYLQMNSLRAEDTAVYYCTVYFDYGLAIQNYWGQGTLVTVSS VL: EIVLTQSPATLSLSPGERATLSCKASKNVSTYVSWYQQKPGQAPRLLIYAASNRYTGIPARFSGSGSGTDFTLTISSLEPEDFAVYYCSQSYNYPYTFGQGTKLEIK
## Output 0.000477

## Input Provide α-human koff value for the following molecule: M58: G1 variant; L1 R28N T30D; L2 L56S; H2 E54K A57N S58I H61F; HC-FW3 L99T A100V (antibody, V domains shown) VH: EVQLVESGGGLVQPGGSLRLSCAASGFTFSNYWISWVRQAPGKGLEWVAEIRSKSDNIATFYAEAVKGRFTISRDNAKNSLYLQMNSLRAEDTAVYYCTVYFDYGLAIQNYWGQGTLVTVSS VL: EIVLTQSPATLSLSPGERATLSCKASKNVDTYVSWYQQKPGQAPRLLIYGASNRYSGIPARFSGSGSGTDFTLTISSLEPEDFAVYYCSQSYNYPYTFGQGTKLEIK
## Output 0.00195

## Input For the molecule M74: G1 variant; L1 R28N T30G; L2 L56S; H2 E54K A57S; HC-FW3 L99T A100V (antibody, V domains shown) VH: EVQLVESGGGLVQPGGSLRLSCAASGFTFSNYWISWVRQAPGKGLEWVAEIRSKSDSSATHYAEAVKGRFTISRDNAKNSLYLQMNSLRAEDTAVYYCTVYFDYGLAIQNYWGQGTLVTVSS VL: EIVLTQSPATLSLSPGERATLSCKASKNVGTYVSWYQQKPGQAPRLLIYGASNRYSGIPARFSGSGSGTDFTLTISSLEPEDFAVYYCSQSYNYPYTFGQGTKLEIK , give its measured α-human koff value.
## Output 0.000597

## Input Give reported α-human koff value for M24: G1 variant; L1 R28L; HC-FW3 L99T A100V (antibody, V domains shown) VH: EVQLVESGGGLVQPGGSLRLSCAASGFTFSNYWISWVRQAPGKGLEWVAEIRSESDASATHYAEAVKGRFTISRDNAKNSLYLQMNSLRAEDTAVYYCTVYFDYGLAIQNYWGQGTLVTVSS VL: EIVLTQSPATLSLSPGERATLSCKASKLVTTYVSWYQQKPGQAPRLLIYGASNRYLGIPARFSGSGSGTDFTLTISSLEPEDFAVYYCSQSYNYPYTFGQGTKLEIK
## Output 0.000148

## Input Specify α-human koff for M71: G1 variant; L1 R28N T30G; L2 L561; H2 E54K A57Y; HC-FW3 L99T A100V (antibody, V domains shown) VH: EVQLVESGGGLVQPGGSLRLSCAASGFTFSNYWISWVRQAPGKGLEWVAEIRSKSDYSATHYAEAVKGRFTISRDNAKNSLYLQMNSLRAEDTAVYYCTVYFDYGLAIQNYWGQGTLVTVSS VL: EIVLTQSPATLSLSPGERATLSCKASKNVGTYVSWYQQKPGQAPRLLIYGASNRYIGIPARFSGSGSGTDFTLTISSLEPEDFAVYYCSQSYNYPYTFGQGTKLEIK and stop.
## Output 0.00128

## Input For the molecule M36: G1 variant; L1 R28N T30R; HC-FW3 L99T A100V (antibody, V domains shown) VH: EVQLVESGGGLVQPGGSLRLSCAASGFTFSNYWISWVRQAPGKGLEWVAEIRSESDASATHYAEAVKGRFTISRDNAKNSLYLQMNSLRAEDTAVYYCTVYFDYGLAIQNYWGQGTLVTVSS VL: EIVLTQSPATLSLSPGERATLSCKASKNVRTYVSWYQQKPGQAPRLLIYGASNRYLGIPARFSGSGSGTDFTLTISSLEPEDFAVYYCSQSYNYPYTFGQGTKLEIK , report α-human koff.
## Output 0.000239

## Input Report α-human koff, nothing else, for this molecule: M39: G1 variant; L1 R28N; L2 G50A L56T; H2 A57N S58Y; HC-FW3 L99T A100V (antibody, V domains shown) VH: EVQLVESGGGLVQPGGSLRLSCAASGFTFSNYWISWVRQAPGKGLEWVAEIRSESDNYATHYAEAVKGRFTISRDNAKNSLYLQMNSLRAEDTAVYYCTVYFDYGLAIQNYWGQGTLVTVSS VL: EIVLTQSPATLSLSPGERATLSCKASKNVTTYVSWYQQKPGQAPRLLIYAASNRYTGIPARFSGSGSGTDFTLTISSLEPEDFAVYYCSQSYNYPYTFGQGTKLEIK
## Output 0.000425

Data credit: patent US20190071490A1
